In this section, each of the compounds is paired with its reported IC50.
Molecular target: PD-1/PD-L1 (Homo sapiens, UniProt Q9NZQ7)
Construct: made in house; host or cells: HEK293T
Sequence (Q9NZQ7 with tags, fused parts or gaps): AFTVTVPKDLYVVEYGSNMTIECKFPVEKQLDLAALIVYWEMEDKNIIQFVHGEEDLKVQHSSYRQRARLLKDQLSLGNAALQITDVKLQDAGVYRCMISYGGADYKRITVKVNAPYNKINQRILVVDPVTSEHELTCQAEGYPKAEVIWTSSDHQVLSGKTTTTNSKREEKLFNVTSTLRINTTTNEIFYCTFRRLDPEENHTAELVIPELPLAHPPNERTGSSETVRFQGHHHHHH
Test: PD-1/PD-L1 Homogenous Time-Resolved Fluorescence (HTRF) binding assay
Details: PD-L1-His 10 nM, PD-1-Ig 20 nM; value given as range class; read-out: Range or IC50
Description: The ability of the compounds of formula (I) to bind to PD-L1 was investigated using a PD-1/PD-L1 Homogenous Time-Resolved Fluorescence (HTRF) binding assay. Homogenous Time-Resolved Fluorescence (HTRF) Binding Assay. All binding studies were performed in an HTRF assay buffer consisting of dPBS supplemented with 0.1% […] bovine serum albumin and 0.05% (v/v) Tween-20. […]

Consider the worked cases shown below.
>  <COMPOUND>
Cc1c(COCCN2CC[C@@H](O)C2)cccc1-c1cccc(COc2cc(OCc3cncc(C#N)c3)c(CN(C)C(C)(CO)CO)cc2Cl)c1C

>  <IC50>
0.21 to 10 nM

$$$$
>  <COMPOUND>
Cc1c(COc2cc(OCc3cncc(C#N)c3)c(CN3CCCC[C@H]3C(=O)O)cc2Cl)cccc1-c1cccc(OCCCN2C[C@@H](O)C[C@H]2C(=O)O)c1C

>  <IC50>
0.21 to 10 nM

$$$$
>  <COMPOUND>
Cc1c(COc2cc(OCc3cncc(C#N)c3)c(CNC(CO)CO)cc2Cl)cccc1-c1cccc(C(=O)NCCN2CCCC2)c1C

>  <IC50>
0.21 to 10 nM

$$$$
>  <COMPOUND>
Cc1c(COc2cc(OCc3cncc(C#N)c3)c(CN3CCCC[C@H]3C(=O)O)cc2Cl)cccc1-c1cccc(C(=O)NCCN2CCCC2)c1C

>  <IC50>
10 to 100 nM

$$$$
>  <COMPOUND>
Cc1c(COc2cc(OCc3cncc(C#N)c3)c(CN[C@@H](CO)C(=O)O)cc2Cl)cccc1-c1cccc(OCCCN2CCC(O)(c3ccccc3)C2)c1C (stereo partly drawn)

>  <IC50>
0.21 to 10 nM

$$$$

Switching to the query record.
Query: For the compound `Cc1c(COc2cc(OCc3cncc(C#N)c3)c(CN3CCCC[C@H]3C(=O)O)cc2Cl)cccc1-c1cccc(OCC(CO)(CO)CO)c1Cl` , give its measured IC50 value.
Response: 100 to 2000 nM

---

In this section, each of the compounds is paired with its reported IC50.
Target: PD-1/PD-L1 (Homo sapiens, UniProt Q9NZQ7)
Construct: made in house; host or cells: HEK293T
Assay: PD-1/PD-L1 Homogenous Time-Resolved Fluorescence (HTRF) binding assay
Conditions: PD-L1-His 10 nM, PD-1-Ig 20 nM; value given as range class; read-out: Range or IC50

>  <COMPOUND>
Cc1c(COc2cc(OCc3cncc(C#N)c3)c(CN[C@@](C)(CO)C(=O)O)cc2Cl)cccc1-c1cccc(OCCCN2CCC(O)(CC(=O)O)C2)c1C (stereo partly drawn) [Example 1517]

>  <ASSAY RESULT>
0.00021 to 0.01 µM

$$$$
>  <COMPOUND>
Cc1c(COc2cc(OCc3cncc(C#N)c3)c(CN3CC[C@H](O)C3)cc2Cl)cccc1-c1ccc2c(c1)OC(CCN1CC[C@H](O)C1)CO2 (mixture of isomers) [Example 1501]

>  <ASSAY RESULT>
0.00021 to 0.01 µM

$$$$

Query: For the compound Cc1c(COc2cc(OCc3cncc(C#N)c3)c(CNC(C)(CO)CO)cc2Cl)cccc1-c1cccc(C(=O)N2CCCC2)c1C [Example 4039] , give its measured IC50 value.
Response: 0.01 to 0.1 µM

---

Biological target: PD-1/PD-L1 (Homo sapiens)
Construct: made in house; host or cells: HEK293T
Assay: PD-1/PD-L1 Homogenous Time-Resolved Fluorescence (HTRF) binding assay
Conditions: PD-L1-His 10 nM, PD-1-Ig 20 nM; value given as range class; read-out: Range or IC50
QUANTITY NAME: IC50

>  <COMPOUND>
Cc1c(COc2cc(OCc3cncc(S(C)(=O)=O)c3)c(CN[C@H](CO)C(=O)O)cc2Cl)cccc1-c1cccc(OCCCN2CCC(O)(C(=O)O)CC2)c1C

>  <IC50>
0.21 to 10 nM

$$$$
>  <COMPOUND>
Cc1c(COc2cc(OCc3cncc(C#N)c3)c(CN(C)[C@@H](C)C(=O)O)cc2Cl)cccc1-c1cccc(OCCCN2CC[C@@H](O)C2)c1C

>  <IC50>
0.21 to 10 nM

$$$$

Query: For the compound Cc1c(COc2cc(OCc3cncc(C#N)c3)c(CN3CCCC[C@H]3C(=O)O)cc2Cl)cccc1-c1cccc(OC[C@H]2CCN(CC(O)CO)C2)c1Cl (stereo partly drawn) , give its measured IC50 value.
Response: 0.21 to 10 nM

Query: For the compound Cc1c(COc2cc(OCc3cncc(C#N)c3)c(CN(C)CC(O)CO)cc2Cl)cccc1-c1cccc(OCCCN(C)CC(O)CO)c1C (stereo not drawn) , give its measured IC50 value.
Response: 0.21 to 10 nM

Query: For the compound `Cc1c(COc2cc(OCc3cncc(C#N)c3)c(CN[C@](C)(CO)C(=O)O)cc2Cl)cccc1-c1cccc(OCCCN2CC[C@@H](O)C2)c1Cl` , give its measured IC50 value.
Response: 0.21 to 10 nM

Query: For the compound `Cc1c(COc2cc(OCc3cncc(C#N)c3)c(CNC(C)(CO)CO)c(C)c2Cl)cccc1-c1cccc(OCCCN2CC[C@@H](O)C2)c1C` , give its measured IC50 value.
Response: 0.21 to 10 nM

---

Target: PD-1/PD-L1 (Homo sapiens)
Construct: made in house; host or cells: HEK293T
Experiment: PD-1/PD-L1 Homogenous Time-Resolved Fluorescence (HTRF) binding assay
Settings: PD-L1-His 10 nM, PD-1-Ig 20 nM; value given as range class; read-out: Range or IC50
pIC50: −log10 of the molar value.
In this section, each of the compounds is paired with its reported pIC50.

>  <CHEMICAL STRING>
Cc1c(COc2cc(OCc3cncc(C#N)c3)c(CN3CCCC[C@H]3C(=O)O)cc2Cl)cccc1-c1cccc(OCCCN2C3COCC2COC3)c1C

>  <pIC50>
8.00 to 9.68

$$$$
>  <CHEMICAL STRING>
Cc1c(COc2cc(OCc3cncc(C#N)c3)c(C(=O)N3CCCC[C@H]3C(=O)O)cc2Cl)cccc1-c1cccc(OCCCN2CC[C@@H](O)C2)c1C

>  <pIC50>
7.00 to 8.00

$$$$
>  <CHEMICAL STRING>
Cc1c(COc2cc(OCc3cncc(C#N)c3)c(CNC(C)(CO)CO)cc2Cl)cccc1-c1cccc(C(=O)N2CCOCC2)c1C

>  <pIC50>
7.00 to 8.00

$$$$
>  <CHEMICAL STRING>
Cc1c(COc2cc(OCc3cncc(C#N)c3)c(CN3CCCC[C@H]3C(=O)O)cc2Cl)cccc1-c1cccc(OCC2(CN3CC[C@@H](O)C3)CC2)c1C

>  <pIC50>
8.00 to 9.68

$$$$

Query: For the compound `Cc1c(OCCCN2CCCCC2)cccc1-c1cccc(COc2cc(OCc3cncc(C#N)c3)c(CN3CCCC[C@H]3C(=O)O)cc2Cl)c1Cl` , give its measured pIC50 value.
Response: 8.00 to 9.68

Query: For the compound `COC(=O)C1(O)CCN(CCCOc2cccc(-c3cccc(COc4cc(OCc5cncc(C#N)c5)c(CN[C@H](CO)C(=O)O)cc4Cl)c3C)c2)CC1` , give its measured pIC50 value.
Response: 8.00 to 9.68

Query: For the compound `Cc1c(COc2cc(OCc3cncc(C#N)c3)c(CN3CCCC[C@H]3C(=O)O)cc2Cl)cccc1-c1cccc(OCCCN2CCC[C@H](O)C2)c1C` , give its measured pIC50 value.
Response: 8.00 to 9.68

Query: For the compound `COCC(COC)NCc1cc(Cl)c(OCc2cccc(-c3cccc(OCCCN4CC[C@@H](O)C4)c3Cl)c2C)cc1OCc1cncc(C#N)c1` , give its measured pIC50 value.
Response: 8.00 to 9.68

---

In this section, each of the compounds is paired with its reported IC50.
Biological target: PD-1/PD-L1 (Homo sapiens, UniProt Q9NZQ7)
Construct: made in house; host or cells: HEK293T
Test: PD-1/PD-L1 Homogenous Time-Resolved Fluorescence (HTRF) binding assay
Conditions: PD-L1-His 10 nM, PD-1-Ig 20 nM; value given as range class; read-out: Range or IC50

>  <CHEMICAL STRING>
Cc1c(COc2cc(OCc3cncc(C#N)c3)c(CN3CCCC[C@H]3C(=O)O)cc2Cl)cccc1-c1cccc(OCCCN2CCN(CCO)CC2)c1C

>  <ASSAY TARGET>
PD-1/PD-L1 (Homo sapiens, UniProt Q9NZQ7)

>  <IC50>
0.21 to 10 nM

$$$$
>  <CHEMICAL STRING>
Cc1c(OCCCN2CCCCC2)cccc1-c1cccc(COc2cc(OCc3cncc(C#N)c3)c(CNC(C)(CO)CO)cc2Cl)c1Cl

>  <ASSAY TARGET>
PD-1/PD-L1 (Homo sapiens, UniProt Q9NZQ7)

>  <IC50>
0.21 to 10 nM

$$$$
>  <CHEMICAL STRING>
CCN(CC)C(=O)c1cccc(-c2cccc(COc3cc(OCc4cncc(C#N)c4)c(CN4CCOC[C@H]4C(=O)O)cc3Cl)c2C)c1C

>  <ASSAY TARGET>
PD-1/PD-L1 (Homo sapiens, UniProt Q9NZQ7)

>  <IC50>
100 to 2000 nM

$$$$
>  <CHEMICAL STRING>
Cc1c(COc2cc(OCc3cncc(C#N)c3)c(CN[C@](C)(CO)C(=O)O)cc2Cl)cccc1-c1cccc(OCCCN2CCC(O)(C(=O)O)CC2)c1C

>  <ASSAY TARGET>
PD-1/PD-L1 (Homo sapiens, UniProt Q9NZQ7)

>  <IC50>
0.21 to 10 nM

$$$$

Query: For the compound `Cc1c(COc2cc(OCc3cncc(C#N)c3)c(CN[C@@](C)(CO)C(=O)O)cc2Cl)cccc1-c1cccc(O[C@@H](C)CCN2CC[C@@H](O)C2)c1Cl` , give its measured IC50 value.
Response: 0.21 to 10 nM

Recorded values, source patent US10745382B2.
